system: 786-0 renal; assay: NCI-60 one-dose screen, 48 h (100 = growth as untreated, 0 = no growth, -100 = all killed); conditions: 10 µM unless noted
The panel holds about 83,000 compounds, 20% with a hit somewhere; the sample as a whole holds those more often.
Assign labels as follows, please: true (1) for growth below 80%; false (0) for growth equal to or exceeding 80%.

[[record]]
compound = "COc1ccc(C2=NN3C(C2)c2cc(Br)ccc2OC3c2ccncc2)cc1 (configuration not stated)"
qualitative_label = "false (0)"

[[record]]
compound = "Cn1cc(-c2nc(-c3c[nH]c4c(Cl)nccc34)cs2)c2ccccc21"
qualitative_label = "false (0)"

[[record]]
compound = "CC(=O)/C(Br)=C/c1ccc(Br)o1"
qualitative_label = "true (1)"

[[record]]
compound = "Cc1cc(C)n(C(=O)CSc2nc3sc4c(c3c(=O)n2-c2ccccc2)CCCCC4)n1"
qualitative_label = "false (0)"

[[record]]
compound = "Cc1ccc(NC(=O)c2ccc(Nc3ncnc4c3cnn4-c3cccc(F)c3)cc2)cc1"
qualitative_label = "false (0)"

[[record]]
compound = "COc1ccc(/C=C\\c2cc(OC)c(OC)c(OC)c2)cc1OCC(=O)Nc1nc2ccccc2s1"
qualitative_label = "true (1)"

[[record]]
compound = "CCN=c1sc2c(n1NC(=O)c1cc3ccc1CCc1ccc(cc1)CC3)C(=O)c1ccccc1C2=O"
qualitative_label = "true (1)"

[[record]]
compound = "COc1ccc(/C(C)=C(\\c2ccc(Cl)cc2)c2ccc(OCCCN(C)C)cc2)cc1"
qualitative_label = "true (1)"

[[record]]
compound = "CCOC(=O)c1ccc2c(c1)[n+](=O)c(C(C)=O)c(C(F)(F)F)n2[O-]"
qualitative_label = "true (1)"

[[record]]
compound = "CCOC(=O)CCC(=O)P(=O)(O)O"
qualitative_label = "false (0)"

[[record]]
compound = "FC(F)(F)c1cccc(-c2nnn(Cc3cc(-c4cccc(Cl)c4)no3)n2)c1"
qualitative_label = "false (0)"

[[record]]
compound = "CCOC(=O)CC1CSC(N/N=C/c2ccc(O)cc2)=N1 (configuration not stated)"
qualitative_label = "false (0)"

